Cited source for all entries: patent US10849322B2

# Test system: L. monocytogenes scott A
# PROCEDURE TEXT: Disc diffusion, zones of inhibition in culture medium
# Format: cell-based, Listeria monocytogenes
# CONDITION DETAILS: J = L. monocytogenes scott A, average of four repetitions
# Description: […]. Select mutants resistant to the antibiotic rifampicin (R+) to eliminate the interference of the native microbial flora of Hibiscus acid and derivatives (Castro-Rosas and Escartín, 2000). Maintain the R+ strains at 4-7° C. on blood-based agar (ABS, Merck®, Germany) with biweekly transfers, activating tripticasein soy broth (CST, Bioxon®, Mexico) with incubation at 35° C./24 h. […]
MEASURED ENDPOINT: Zones of inhibition
Report field: quantity (unit follows the number).

{"MOLECULE": "CCOC(=O)C[C@](O)(C(=O)OCC)[C@@H](O)C(=O)OCC [Compound 6, tri-ethyl ester of hydroxycitric acid]", "Zones of inhibition": "5 mm"}
{"MOLECULE": "COC(=O)[C@H]1OC(=O)C[C@]1(O)C(=O)OC", "Zones of inhibition": "8 mm"}
{"MOLECULE": "CCOC(=O)[C@H]1OC(=O)C[C@]1(O)C(=O)OCC", "Zones of inhibition": "6 mm"}
{"MOLECULE": "COC(=O)[C@@]1(O)CC(=O)O[C@@H]1C(=O)O", "Zones of inhibition": "8 mm"}
{"MOLECULE": "CCOC(=O)[C@@]1(O)CC(=O)O[C@@H]1C(=O)O", "Zones of inhibition": "6 mm"}

Here is another molecule to look at.
Reported Zones of inhibition for "O=C1C[C@](O)(C(=O)O)[C@@H](C(=O)O)O1" was 10 mm
